# Tested on: HTT mRNA
# assay explanation: RT-qPCR splicing assay, HTT mRNA canonical (CJ) and alternative (AJ) junction
# Type: cell-based, human
# run conditions: Homo sapiens, HTT canonical junction mRNA, RT-qPCR; read-out: HTT CJ (decrease in CJ mRNA levels, IC50)
pIC50: −log10 of the molar value.
test readout: pIC50

{"compound": "C[C@H]1CN(c2ccc3nc(-c4cc5cn(C)nc5c(F)c4O)ncc3c2)C[C@H](C)N1", "pIC50": "> 7.00"}

// moving on: another record for pIC50
Query: Requested field: pIC50. Item: Cc1nc2c(F)c(O)c(-c3ccc4nc(N5CC[C@H](NCC6CC6)C5)ccc4n3)cc2o1 (single isomer, unassigned)
Result: > 7.00

---

Measured IC50 of individual entries
# Tested on: MYB
# assay explanation: HiBiT protein abundance assay, MYB (K562 HiBiT knock-in)
# Format: cell-based, human
# run conditions: HiBiT knock-in K562 cells, 24 hours, top dose 10 μM

{"compound": "Cc1nc2c(C)c(O)c(-c3ccc4nc(N5CC[C@H](NCC6CC6)C5)ccc4n3)cc2o1 (single isomer, unassigned) [Compound 296]", "readout value": "< 100 nM"}

Query: Requested field: IC50. Item: Cc1nc2cc(O)c(-c3ccc4nc(N5CC[C@H](NC(C)C)C5)ccc4n3)cc2o1 [Compound 233]
Result: < 100 nM

Query: Requested field: IC50. Item: CN[C@@H]1CCN(c2cc3c(Cl)cc(-c4cc5cn(C)nc5c(C)c4O)nc3cc2C)C1 [Compound 748]
Result: 100 to 1000 nM

Query: Requested field: IC50. Item: Cn1cc2cc(-c3ccc4nc(N5CC[C@@H](NC(C)(C)C)C5)ccc4n3)c(O)cc2n1 [Compound 153]
Result: < 100 nM

Query: Requested field: IC50. Item: Cc1cn2nc(-c3ccc4cc(N5C[C@H](C)N[C@@H](C)C5)cc(F)c4n3)cc(C)c2n1 (single isomer, unassigned) [Compound 799]
Result: 100 to 1000 nM

Query: Requested field: IC50. Item: Cc1nc(-c2cc3cn(C)nc3cc2O)nc2ccc(N3C[C@H](C)N[C@@H](C)C3)cc12 (single isomer, unassigned) [Compound 806]
Result: < 100 nM

Query: Requested field: IC50. Item: Cn1cc2cc(-c3ccc4nc(N5CC[C@@H](NC6CC(F)(F)C6)C5)ccc4n3)c(O)cc2n1 [Compound 385]
Result: 100 to 1000 nM

---

# System: Target C
# assay explanation: RT-qPCR canonical junction panel assay, Target C mRNA
# Type: cell-based
# run conditions: Table 4, read-out: Target C IC50 (decrease in CJ mRNA levels)
test readout: IC50

{"molecule": "Cc1nc2cc(O)c(-c3ccc4nc(N5CC[C@@H](N[C@H]6C[C@H](F)C6)C5)ccc4n3)cc2o1 (single isomer, unassigned) [Compound 348]", "IC50": "100 to 1000 nM"}

Query: Requested field: IC50. Item: CC(=O)c1nc(-c2cc3cn(C)nc3c(F)c2O)nc2ccc(N3CCNCC3)cc12 [Compound 513, 2,2,2-trifluoroacetate]
Result: 1000 to 10000 nM

Query: Requested field: IC50. Item: Cc1nc2c(F)c(O)c(-c3ccc4nc(N5CCC(NC(C)C)C5)ccc4n3)cc2o1 (centres unmarked) [Compound 328]
Result: < 100 nM

Query: Requested field: IC50. Item: Cc1nc2cc(O)c(-c3ccc4nc(N5CCNC(C(C)(C)C)C5)ccc4n3)cc2o1 (centres unmarked) [Compound 492]
Result: 1000 to 10000 nM

Query: Requested field: IC50. Item: Cn1cc2cc(-c3ncc4cc(N5CCC(N6CCC6)CC5)ccc4n3)c(O)c(F)c2n1 [Compound 750]
Result: 100 to 1000 nM

---

Measured IC50 of individual entries
# Test system: MYB
# assay explanation: HiBiT protein abundance assay, MYB (K562 HiBiT knock-in)
# Format: cell-based, human
# run conditions: HiBiT knock-in K562 cells, 24 hours, top dose 10 μM

// below: answered compounds
{"compound": "Cn1cc2cc(-c3ccc4nc(C5CCNCC5)ccc4n3)c(C#N)cc2n1 [Compound 204]", "IC50": "1 to 10 µM"}
{"compound": "Cc1nc2c(C)c(O)c(-c3ccc4cc(N5CC[C@H](NC(C)(C)C)C5)ncc4n3)cc2o1 (single isomer, unassigned) [Compound 445]", "IC50": "0.1 to 1 µM"}
{"compound": "Cn1cc2cc(-c3ccc4nc(N5CC[C@H](NC6(CF)CC6)C5)ccc4n3)c(O)cc2n1 [Compound 355]", "IC50": "< 0.1 µM"}
{"compound": "Cn1cc2cc(-c3ccc4nc([C@@H]5CCNC6(CC6)C5)ccc4n3)c(O)cc2n1 (single isomer, unassigned) [Compound 495]", "IC50": "< 0.1 µM"}
{"compound": "Cn1cc2cc(-c3nc(C#N)c4cc(N5CCNCC5)ccc4n3)c(O)c(F)c2n1 [Compound 514]", "IC50": "< 0.1 µM"}

Query: Requested field: IC50. Item: Cn1cc2cc(-c3ccc4nc(N5CC[C@H](NC6(C)CC6)C5)ccc4n3)c(O)c(F)c2n1 [Compound 222]
Result: < 0.1 µM

---

# System: MYB mRNA
# assay explanation: RT-qPCR splicing assay, MYB mRNA canonical (CJ) and alternative (AJ) junction
# Assay type: cell-based, human
# run conditions: Homo sapiens, MYB canonical junction mRNA, RT-qPCR; read-out: MYB CJ (decrease in CJ mRNA levels, IC50)
test readout: IC50

Query: Requested field: IC50. Item: CNC1CCN(c2ccc3nc(-c4cc5oc(C)nc5cc4O)ccc3n2)CC1
Result: 1000 to 10000 nM

Query: Requested field: IC50. Item: C[C@H]1C[C@@H](c2ccc3nc(-c4cc5cn(C)nc5c(F)c4O)ccc3n2)CCN1 (single isomer, unassigned)
Result: < 100 nM

Query: Requested field: IC50. Item: Cn1cc2cc(-c3ccc4cc(N5CCNCC5)cc(F)c4n3)cc(F)c2n1
Result: < 100 nM

Query: Requested field: IC50. Item: Cn1cc2cc(-c3ccc4nc(N5CC[C@@H](NC6CCC6)C5)ccc4n3)c(O)cc2n1
Result: < 100 nM

Query: Requested field: IC50. Item: Cn1cc2cc(-c3ccc4nc(N5CCN6CCCC6C5)ccc4n3)c(O)cc2n1 (centres unmarked)
Result: 100 to 1000 nM

Query: Requested field: IC50. Item: CCc1nc2cc(O)c(-c3ccc4nc(N5CCC(NC(C)(C)C)C5)ccc4n3)cc2o1 (centres unmarked)
Result: 1000 to 10000 nM

Query: Requested field: IC50. Item: CN(c1ccc2nc(-c3cc4cn(C)nc4cc3O)ccc2n1)C1CC(C)(C)N(C)C(C)(C)C1
Result: > 10000 nM

Query: Requested field: IC50. Item: CNC(=O)c1nc(-c2cc3cn(C)nc3c(C)c2O)nc2ccc(N3CCC(N4CCC4)CC3)cc12
Result: < 100 nM

---

# System: HTT mRNA
# assay explanation: RT-qPCR splicing assay, HTT mRNA canonical (CJ) and alternative (AJ) junction
# Format: cell-based, human
# run conditions: Homo sapiens, RT-qPCR, HTT canonical junction mRNA decrease; read-out: HTT CJ (decrease in canonical junction mRNA, IC50)
test readout: IC50

// below: answered compounds
{"compound": "CN(C)C1CCN(c2ccc3nc(-c4cc5cn(C)nc5c(F)c4O)ncc3c2)CC1", "readout value": "1000 to 10000 nM"}
{"compound": "Cc1c(O)c(-c2ccc3cc(N4CCNC5(CC5)C4)cc(F)c3n2)cc2cn(C)nc12", "readout value": "< 100 nM"}
{"compound": "Cc1cn2cc(-c3ncc4cc(N5C[C@H](C)N[C@@H](C)C5)ccc4n3)ccc2n1", "readout value": "1000 to 10000 nM"}
{"compound": "COc1nc(-c2ncc3cc(N4C[C@H](C)N[C@@H](C)C4)ccc3n2)cn2cc(C)nc12", "readout value": "1000 to 10000 nM"}
{"compound": "C[C@H]1CN(c2ccc3nc(-c4cc(F)c5nn(C)cc5c4)ncc3c2)C[C@H](C)N1", "readout value": "100 to 1000 nM"}

Query: Requested field: IC50. Item: C[C@H]1CN(c2ccc3nc(-c4cc(F)c5nn(C)c(F)c5c4)ncc3c2)C[C@H](C)N1
Result: > 10000 nM

Query: Requested field: IC50. Item: Cc1c(O)c(-c2ncc3cc(N4C[C@H](C)NC5(CC5)C4)ccc3n2)cc2cn(C)nc12 (single isomer, unassigned)
Result: 1000 to 10000 nM

Query: Requested field: IC50. Item: Cc1cn2cc(-c3nc(C(=O)NC4CCC4)c4cc(N5C[C@@H](C)N[C@@H](C)C5)ccc4n3)cc(F)c2n1
Result: 1000 to 10000 nM
